Test system: 252836-082-R-J2-PDC tumor spheroids, viability
Experiment: Anticancer human tumor 252836-082-R-J2-PDC patient-derived head and neck squamous cell carcinoma cell line growth inhibition [PI3K]
Conditions: second compound 0.316 µM; first compound 0.0316 µM; stronger effect = lower value; spheroids with HUVEC and MSC
Measured viability, T/C accompanies every entry in the list below.
Experimental Endpoint: viability, T/C (%)

Molecule | Tgt | Experimental Endpoint | Recorded Value
CCCS(=O)(=O)Nc1ccc(F)c(C(=O)c2c[nH]c3ncc(-c4ccc(Cl)cc4)cc23)c1F + CC(Nc1ccc2c(c1)OCCn1cc(N3C(=O)OCC3C(F)F)nc1-2)C(N)=O | 252836-082-R-J2-PDC tumor spheroids, viability | viability, T/C | 64.4
CC(Cn1ccc(-c2ccc(C#N)c(Cl)c2)n1)NC(=O)c1cc(C(C)O)[nH]n1 (stereo unspecified) + CC(Nc1ncnc2nc[nH]c12)c1cc2cccc(Cl)c2c(=O)n1-c1ccccc1 | 252836-082-R-J2-PDC tumor spheroids, viability | viability, T/C | 83.2
CCCS(=O)(=O)Nc1ccc(F)c(C(=O)c2c[nH]c3ncc(-c4ccc(Cl)cc4)cc23)c1F + Cc1nc(NC(=O)N2CCCC2C(N)=O)sc1-c1ccnc(C(C)(C)C(F)(F)F)c1 | 252836-082-R-J2-PDC tumor spheroids, viability | viability, T/C | 73.2
CC(C)NCC(C(=O)N1CCN(c2ncnc3c2C(C)CC3O)CC1)c1ccc(Cl)cc1 (stereo unspecified) + CC(Nc1ncnc2nc[nH]c12)c1cc2cccc(Cl)c2c(=O)n1-c1ccccc1 | 252836-082-R-J2-PDC tumor spheroids, viability | viability, T/C | 83.3
CNC(=O)c1ccc(N2C(=S)N(c3ccc(C#N)c(C(F)(F)F)c3)C(=O)C2(C)C)cc1F + CC(Nc1ncnc2nc[nH]c12)c1cc2cccc(Cl)c2c(=O)n1-c1ccccc1 | 252836-082-R-J2-PDC tumor spheroids, viability | viability, T/C | 102
CC(=O)c1c(C)c2cnc(Nc3ccc(N4CCNCC4)cn3)nc2n(C2CCCC2)c1=O + COc1c(OCCCN2CCOCC2)ccc2c3n(c(=NC(=O)c4cnc(N)nc4)nc12)CCN3 | 252836-082-R-J2-PDC tumor spheroids, viability | viability, T/C | 21.8
C[C@@H](NC(=O)c1ncnc(N)c1Cl)c1ncc(C(=O)Nc2cc(C(F)(F)F)c(Cl)cn2)s1 + CC(Nc1ncnc2nc[nH]c12)c1cc2cccc(Cl)c2c(=O)n1-c1ccccc1 | 252836-082-R-J2-PDC tumor spheroids, viability | viability, T/C | 90.1
Cn1nccc1Nc1nccc(-c2ccn(C(CO)c3ccc(Cl)c(F)c3)c(=O)c2)n1 (stereo unspecified) + Cc1nc(NC(=O)N2CCCC2C(N)=O)sc1-c1ccnc(C(C)(C)C(F)(F)F)c1 | 252836-082-R-J2-PDC tumor spheroids, viability | viability, T/C | 74.7
C#Cc1c(F)ccc2cc(O)cc(-c3ncc4c(N5CC6CCC(C5)N6)nc(OCC56CCCN5CC(F)C6)nc4c3F)c12 (stereo unspecified) + COc1c(OCCCN2CCOCC2)ccc2c3n(c(=NC(=O)c4cnc(N)nc4)nc12)CCN3 | 252836-082-R-J2-PDC tumor spheroids, viability | viability, T/C | 16.9
CC(=O)c1c(C)c2cnc(Nc3ccc(N4CCNCC4)cn3)nc2n(C2CCCC2)c1=O + Cc1nc(NC(=O)N2CCCC2C(N)=O)sc1-c1ccnc(C(C)(C)C(F)(F)F)c1 | 252836-082-R-J2-PDC tumor spheroids, viability | viability, T/C | 66.7
CCCS(=O)(=O)Nc1ccc(F)c(C(=O)c2c[nH]c3ncc(-c4ccc(Cl)cc4)cc23)c1F + COc1c(OCCCN2CCOCC2)ccc2c3n(c(=NC(=O)c4cnc(N)nc4)nc12)CCN3 | 252836-082-R-J2-PDC tumor spheroids, viability | viability, T/C | 16.1
C=CC(=O)N1CCN(c2nc(=O)n(-c3c(C)ccnc3C(C)C)c3nc(-c4c(O)cccc4F)c(F)cc23)C(C)C1 (stereo unspecified) + CC(Nc1ncnc2nc[nH]c12)c1cc2cccc(Cl)c2c(=O)n1-c1ccccc1 | 252836-082-R-J2-PDC tumor spheroids, viability | viability, T/C | 91
Cn1ncnc1[C@H]1c2n[nH]c(=O)c3cc(F)cc(c23)N[C@@H]1c1ccc(F)cc1 + CC(Nc1ncnc2nc[nH]c12)c1cc2cccc(Cl)c2c(=O)n1-c1ccccc1 | 252836-082-R-J2-PDC tumor spheroids, viability | viability, T/C | 76.9
Cn1ncnc1[C@H]1c2n[nH]c(=O)c3cc(F)cc(c23)N[C@@H]1c1ccc(F)cc1 + Cc1nc(NC(=O)N2CCCC2C(N)=O)sc1-c1ccnc(C(C)(C)C(F)(F)F)c1 | 252836-082-R-J2-PDC tumor spheroids, viability | viability, T/C | 55.6
CC1(C)CCC(CN2CCN(c3ccc(C(=O)NS(=O)(=O)c4ccc(NCC5CCOCC5)c([N+](=O)[O-])c4)c(Oc4cnc5[nH]ccc5c4)c3)CC2)=C(c2ccc(Cl)cc2)C1 + Cc1nc(NC(=O)N2CCCC2C(N)=O)sc1-c1ccnc(C(C)(C)C(F)(F)F)c1 | 252836-082-R-J2-PDC tumor spheroids, viability | viability, T/C | 92.8
CCN1CCN(Cc2ccc(Nc3ncc(F)c(-c4cc(F)c5nc(C)n(C(C)C)c5c4)n3)nc2)CC1 + CC(Nc1ccc2c(c1)OCCn1cc(N3C(=O)OCC3C(F)F)nc1-2)C(N)=O | 252836-082-R-J2-PDC tumor spheroids, viability | viability, T/C | 51.5

====

Tested on: 252836-082-R-J2-PDC tumor spheroids, viability
Assay: Anticancer human tumor 252836-082-R-J2-PDC cell line growth inhibition [PI3K];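 note: spheroids exposed to agents for seven days before readout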
Details: curve of first compound; second compound 3.16 µM; spheroids with HUVEC and MSC
Description: Combinatorial screen of targeted agents with the PI3K inhibitors inavolisib, alpelisib, duvelisib, and copanlisib in multi-cell type tumor spheroids A high-throughput screen of multi-cell type tumor spheroids was designed to identify active combinations of targeted small molecules and PI3K pathway inhibitors. […] Compounds. […] If the clinical Cmax for an agent had not been determined, the highest concentration tested was 10 microM. […]
pIC50: −log10 of the molar value.
Measured pIC50 accompanies every entry in the list below.

Compound | pIC50
C#Cc1c(F)ccc2cc(O)cc(-c3ncc4c(N5CC6CCC(C5)N6)nc(OCC56CCCN5CC(F)C6)nc4c3F)c12 (stereo not drawn) + CC(Nc1ncnc2nc[nH]c12)c1cc2cccc(Cl)c2c(=O)n1-c1ccccc1 | < 5.00
Cn1cnc2c(F)c(Nc3ccc(Br)cc3Cl)c(C(=O)NOCCO)cc21 + Cc1nc(NC(=O)N2CCCC2C(N)=O)sc1-c1ccnc(C(C)(C)C(F)(F)F)c1 | > 8.02
Cn1nccc1Nc1nccc(-c2ccn(C(CO)c3ccc(Cl)c(F)c3)c(=O)c2)n1 (stereo not drawn) + CC(Nc1ncnc2nc[nH]c12)c1cc2cccc(Cl)c2c(=O)n1-c1ccccc1 | < 5.00

====

System: 252836-082-R-J2-PDC tumor spheroids, viability
Test: Anticancer human tumor 252836-082-R-J2-PDC cell line growth inhibition [PI3K];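 note: spheroids exposed to agents for seven days before readout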;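 for viability, T/C: percent of vehicle DMSO control viability so 100% = untreated growth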
Conditions: second compound 0.0316 µM; first compound 0.316 µM; stronger effect = lower value; spheroids with HUVEC and MSC

Compound | viability, T/C (%)
CCCS(=O)(=O)Nc1ccc(F)c(C(=O)c2c[nH]c3ncc(-c4ccc(Cl)cc4)cc23)c1F + COc1c(OCCCN2CCOCC2)ccc2c3n(c(=NC(=O)c4cnc(N)nc4)nc12)CCN3 | 67.9
CCN1CCN(Cc2ccc(Nc3ncc(F)c(-c4cc(F)c5nc(C)n(C(C)C)c5c4)n3)nc2)CC1 + COc1c(OCCCN2CCOCC2)ccc2c3n(c(=NC(=O)c4cnc(N)nc4)nc12)CCN3 | 55.5
C#Cc1c(F)ccc2cc(O)cc(-c3ncc4c(N5CC6CCC(C5)N6)nc(OCC56CCCN5CC(F)C6)nc4c3F)c12 (stereo not given) + CC(Nc1ncnc2nc[nH]c12)c1cc2cccc(Cl)c2c(=O)n1-c1ccccc1 | 82.8
CC(C)NCC(C(=O)N1CCN(c2ncnc3c2C(C)CC3O)CC1)c1ccc(Cl)cc1 (stereo not given) + CC(Nc1ccc2c(c1)OCCn1cc(N3C(=O)OCC3C(F)F)nc1-2)C(N)=O | 67
C[C@@H](NC(=O)c1ncnc(N)c1Cl)c1ncc(C(=O)Nc2cc(C(F)(F)F)c(Cl)cn2)s1 + Cc1nc(NC(=O)N2CCCC2C(N)=O)sc1-c1ccnc(C(C)(C)C(F)(F)F)c1 | 88.9

====

System: 252836-082-R-J2-PDC tumor spheroids, viability
Assay: Anticancer human tumor 252836-082-R-J2-PDC cell line growth inhibition [PI3K];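 note: spheroids exposed to agents for seven days before readout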;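 for viability, T/C: percent of vehicle DMSO control viability so 100% = untreated growth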
Conditions: compound 0.316 µM; stronger effect = lower value; spheroids with HUVEC and MSC

Compound | Tgt | viability, T/C
CC1(C)CCC(CN2CCN(c3ccc(C(=O)NS(=O)(=O)c4ccc(NCC5CCOCC5)c([N+](=O)[O-])c4)c(Oc4cnc5[nH]ccc5c4)c3)CC2)=C(c2ccc(Cl)cc2)C1 | 252836-082-R-J2-PDC tumor spheroids, viability | 100% [middle of 4 runs]
CC(Nc1ccc2c(c1)OCCn1cc(N3C(=O)OCC3C(F)F)nc1-2)C(N)=O (centres undefined) | 252836-082-R-J2-PDC tumor spheroids, viability | 51.8% [middle of 8 runs]
CC(Nc1ncnc2nc[nH]c12)c1cc2cccc(Cl)c2c(=O)n1-c1ccccc1 (centres undefined) | 252836-082-R-J2-PDC tumor spheroids, viability | 97.4% [middle of 8 runs]
CC1(C)CCC(Nc2ncc(C(F)(F)F)c(-c3c[nH]c4c(P(C)(C)=O)c(C#N)ccc34)n2)CN1 (centres undefined) | 252836-082-R-J2-PDC tumor spheroids, viability | 35.8% [middle of 4 runs]

Data origin, for the record: PubChem BioAssay AID1963985
